Assay: Ability to inhibit canine cardiac cAMP phosphodiesterase III
pIC50 by entry:
Friendly reminder that pIC50 comes from taking -log10 of the concentration in mol/L.

Cc1nccn1-c1ccc(-c2cccn3c(C)ncc23)cc1 : 4.19
C1=C(c2ccc(-n3ccnc3)cc2)c2nccn2CC1 : 3.26
c1cc(-c2ccc(-n3ccnc3)cc2)c2nccn2c1 : 3.66
Cc1nccn1-c1ccc(-c2cccn3c(C)nc(Br)c23)cc1 : 4.52

IN: GET /values?readout=pIC50&item= Cc1nccn1-c1ccc(C2=CCCn3c2cnc3C)cc1
OUT: 3.82

---

Measured CF C20, listed per entry for reference.
Species on record: Felis catus
Test: Inotropic activity as dose required to cause 20% positive or negative change in contractile force of papillary muscle from cat
Assay type: functional, Muscle tissue
Provide only the numeric value, understood in µM.

Here are 3 compounds together with their reported answers.
Oc1ccc(-c2cccn3ccnc23)cc1 : 15
Nc1ccc(-c2cccn3ccnc23)cc1 : 15
Cc1ncc2n1CCC=C2c1ccc(-n2ccnc2)cc1 : 9

IN: Looking for the measured CF C20 of c1cc(-c2ccc(-n3ccnc3)cc2)c2nccn2c1 , can you help?
OUT: 30

IN: Can you share its CF C20? I mean this compound: COC(=O)c1nc(O)n2cccc(-c3ccc(C)cc3)c12
OUT: -40

IN: Can you share its CF C20? I mean this compound: Cc1ncc2n1CCC=C2c1ccccc1
OUT: 10

IN: Value lookup for CF C20; key = C1=C(c2ccc(-n3ccnc3)cc2)c2nccn2CC1
OUT: 29

IN: Entry CC(=O)Nc1ccc(C2=CCCn3c2cnc3C)cc1 : reported CF C20 = ?
OUT: 10

IN: Look up CF C20 for this compound: Cc1nccn1-c1ccc(C2=CCCn3c2cnc3C)cc1
OUT: 5

IN: CF C20 for CCOc1ccc(C2=CCCn3c2cnc3C)cc1 ?
OUT: 20

IN: Requested read-out: CF C20. Entry: CCc1nccn1-c1ccc(C2=CCCn3c2cnc3CC)cc1
OUT: 0.8

---

Species: Felis catus
Assay: Inotropic activity as dose required to cause 20% positive or negative change in contractile force of papillary muscle from cat
Format: functional, Muscle tissue
Note to self: class labels come from recorded CF C20, ranges listed here: group 1: < 1 µM; group 2: ≥ 1 µM and < 10 µM; group 3: ≥ 10 µM

# count of solved cases: 5
COC(=O)c1nc(O)n2cccc(-c3ccc(-n4ccnc4C)cc3)c12 : group 3
Cc1ncc2n1CCC=C2c1ccc(O)cc1 : group 3
Cc1ccc(-c2cccn3c(O)ncc23)cc1 : group 2
CCOc1ccc(-c2cccn3c(C)ncc23)cc1 : group 1
CSc1ccc(C(=O)c2[nH]c(=O)[nH]c2C)cc1 : group 2

IN: Input C1=C(c2ccccc2)c2nccn2CC1 ; output its category
OUT: group 1

IN: Quick check: band for Nc1ccc(C2=CCCn3ccnc32)cc1
OUT: group 1

IN: Entry Cc1nccn1-c1ccc(-c2cccn3c(C)ncc23)cc1 belongs to which category?
OUT: group 3

IN: Into which category would you place Cc1ncc2n1CCC=C2c1ccc(NS(C)(=O)=O)cc1 ?
OUT: group 2

---

CF C20 values, listed per item
Species on record: Felis catus
Assay: Inotropic activity as dose required to cause 20% positive or negative change in contractile force of papillary muscle from cat
Type: functional, Muscle tissue
Output spec: scalar in µM, unitless text.

CS(=O)(=O)Nc1ccc(-c2cccn3ccnc23)cc1 : 10
c1ccc(-c2cccn3ccnc23)cc1 : 1

IN: Endpoint output: CF C20 of Cc1nccn1-c1ccc(-c2cccn3c(C)nc(Br)c23)cc1 . Value?
OUT: 1
